- targetOrTestSystem: JAK3 enzyme (Homo sapiens, UniProt P52333)
- Sequence (P52333 whole entry, species assumed): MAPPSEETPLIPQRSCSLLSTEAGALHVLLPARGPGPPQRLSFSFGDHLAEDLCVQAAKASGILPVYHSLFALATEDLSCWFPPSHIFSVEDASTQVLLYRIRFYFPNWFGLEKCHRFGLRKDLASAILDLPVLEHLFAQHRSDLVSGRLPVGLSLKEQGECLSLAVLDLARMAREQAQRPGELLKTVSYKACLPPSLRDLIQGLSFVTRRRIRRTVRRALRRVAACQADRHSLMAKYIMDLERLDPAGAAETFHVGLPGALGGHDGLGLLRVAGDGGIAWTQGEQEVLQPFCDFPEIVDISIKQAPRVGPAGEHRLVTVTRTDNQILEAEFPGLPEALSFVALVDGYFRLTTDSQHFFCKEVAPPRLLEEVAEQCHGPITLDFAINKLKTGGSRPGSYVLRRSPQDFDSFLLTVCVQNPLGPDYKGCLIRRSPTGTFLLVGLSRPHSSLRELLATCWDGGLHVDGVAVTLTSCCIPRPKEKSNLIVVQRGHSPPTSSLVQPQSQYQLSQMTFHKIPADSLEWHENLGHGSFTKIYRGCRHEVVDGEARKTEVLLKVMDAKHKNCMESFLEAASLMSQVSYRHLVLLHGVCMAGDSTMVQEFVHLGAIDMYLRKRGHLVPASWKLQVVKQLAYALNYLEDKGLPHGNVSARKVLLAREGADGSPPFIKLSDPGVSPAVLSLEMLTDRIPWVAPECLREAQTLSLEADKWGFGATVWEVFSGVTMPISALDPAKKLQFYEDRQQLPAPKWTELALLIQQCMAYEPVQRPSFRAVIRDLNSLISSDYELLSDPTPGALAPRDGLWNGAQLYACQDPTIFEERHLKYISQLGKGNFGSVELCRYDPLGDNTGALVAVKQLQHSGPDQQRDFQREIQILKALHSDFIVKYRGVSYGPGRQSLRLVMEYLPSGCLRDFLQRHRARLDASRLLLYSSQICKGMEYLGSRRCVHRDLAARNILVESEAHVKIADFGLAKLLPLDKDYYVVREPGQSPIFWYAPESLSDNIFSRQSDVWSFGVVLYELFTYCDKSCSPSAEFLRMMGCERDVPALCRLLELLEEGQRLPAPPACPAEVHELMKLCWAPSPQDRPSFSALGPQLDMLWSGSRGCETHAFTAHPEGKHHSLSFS
- testProtocol: JAK Caliper Enzyme Assay at 4 μM ATP
- Assay type: biochemical
Kindly supply the reported pIC50 values for the records listed here.
Notebook: values listed as pIC50 are -log10 of the concentration (mol/L).

Consider the compound shown here: C=CC(=O)N1CCC(Oc2cnc3[nH]cc(C(=O)NCC4(O)CCCC(F)(F)C4)c3n2)CC1 (racemic) [Example 223] What is its recorded pIC50? 8.38

Query C=CC(=O)N1CC[C@@H](Nc2cnc3[nH]cc(C(=O)NCCCC(F)(F)F)c3n2)[C@@H](OC)C1 [Example 308] next 9.27

Query C=CC(=O)N1C[C@H](C)[C@H](Nc2cnc3[nH]cc(C(=O)NCCOC)c3n2)C1 [Example 264] next 8.62

Query C=CC(=O)N1CCN(c2cnc3[nH]cc(C(=O)NCC4CC(F)(F)C4)c3n2)CC1 [Example 276] next 9.32

Query C=CC(=O)N1CC[C@H](Nc2cnc3[nH]cc(C(=O)NCC)c3n2)[C@@H](C)C1 (single isomer, unassigned) [Example 45] next 9.41

Query C=CC(=O)N1CCC(C)(Nc2cnc3[nH]cc(C(=O)N[C@H](C)COC)c3n2)CC1 [Example 335] next 9.58

Query C=CC(=O)N1C[C@H](CC#N)C[C@H](Nc2ncnc3[nH]ccc23)C1 (single isomer, unassigned) [Example 107] next 7.93

Query C=CC(=O)N1CCC(Oc2cnc3[nH]cc(C(=O)N[C@@H](C(C)C)[C@H](O)C(F)(F)F)c3n2)CC1 [Example 217] next 8.71

Query C=CC(=O)N1CCC(Oc2cnc3[nH]cc(C(=O)N[C@H]4CC[C@@H](F)C4)c3c2)CC1 [Example 344] next 7.57

Query C[C@H]1CC[C@@H](Nc2ncnc3[nH]ccc23)CN1C(=O)C1CO1 (mixture of isomers) [Example 132] next 8.78

Query C=CC(=O)N1C[C@H](Nc2cnc3[nH]cc(C(=O)NCC)c3n2)[C@](C)(C#N)C1 [Example 251] next 8.29

Query C=CC(=O)N1CCN(c2cnc3[nH]cc(C(=O)N[C@@H](CO)c4ccc(F)cc4)c3n2)CC1(C)C [Example 146] next 7.91

Query C=CC(=O)N1CC(Nc2ncnc3[nH]ccc23)CCC1[C@@H](C)O (mixture of isomers) [Example 109] next 9.15

Query C=CC(=O)N1CCC(Nc2cnc3[nH]cc(C(=O)NCc4ccc(-n5cccn5)cc4)c3n2)CC1 [Example 183] next 8.99

Query C=CC(=O)N1CCN(c2cnc3[nH]cc(C(=O)N[C@@H](COC)c4ccccc4)c3n2)CC1(C)C [Example 138] next 7.33
